- protocol.details: protein stability index of a GFP-peptide fusion (GPS, HEK-293T) (PSI 1-6); higher = more stable;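 further: 24-mer peptide tiles fused after GFP, lentivirally expressed, FACS-sorted into six equal bins by GFP/DsRed ratio, decoded by Illumina sequencing, PSI is the read-weighted mean bin number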
- condition.label: treatment: DMSO; c terminus: a fixed tail appended
Reported protein stability index is given for each of the following sequences.
Response field accepts a number only; no unit should be typed.

# example entries with known answers
seq	protein stability index
GGGSSRISSVLAGGSCRAPSTYGG [KRT16]	3.04
DLIKHQRIHTEEKPYKCQQCDKRF [ZNF75A]	2.99

Now look at this entry.
Prompt: Returns the measured protein stability index for the input sequence. Input: DLENRCQSLTEDLEFRKSMYEEEI [LMNB1]
Completion: 4.91

====

Reported protein stability index is given for each of the following sequences.
- protocol.details: protein stability index of a GFP-peptide fusion (GPS, HEK-293T) (PSI 1-6); higher = more stable
- condition.label: treatment: MLN4924 1 uM, 8 h; c terminus: a fixed tail appended
Response field accepts a number only; no unit should be typed.

seq	protein stability index
SVGGVPGGTGSGDGNKIFLCHCGK [ZBTB22]	3.73
YRVWKKMLASVESVPFSFDPNTAA [TRIM35]	2.3
ARKGKGAFCNGQKLQVSQQEDITK [IMPA1]	4.67
DCILRDTSEDLRLQCDAVNLAFGR [TEKT4]	3.48
IIEYRGKFMLREQFEANGYFFKRP [KMT2E]	2.37

Prompt: Returns the measured protein stability index for the input sequence. Input: GVRDSGSPPLHANTSLHVFVLDEN [PCDHGC5]
Completion: 3.51

====

Reported protein stability index is given for each of the following sequences.
- protocol.details: protein stability index of a GFP-peptide fusion (GPS, HEK-293T) (PSI 1-6); higher = more stable
- condition.label: treatment: MLN4924 1 uM, 8 h; c terminus: a fixed tail appended
Response field accepts a number only; no unit should be typed.

seq	protein stability index
EALCEEDLLLWIQKHTEVETVDLV [DENND6A]	3.08

Prompt: Returns the measured protein stability index for the input sequence. Input: VVMNLDSRLLIFPLYICCNFLYIS [GMCL1]
Completion: 2.94

Prompt: Returns the measured protein stability index for the input sequence. Input: AQTLHHKSCYNGRFQLLYVACGMV [DNAAF3]
Completion: 2.39

Prompt: Returns the measured protein stability index for the input sequence. Input: ALLNDHIYVVGGFDGTAHLSSVEA [KLHL12]
Completion: 3

Prompt: Returns the measured protein stability index for the input sequence. Input: SESQLASTESDKPTTGRVYESDSS [C18orf25]
Completion: 5.44

Prompt: Returns the measured protein stability index for the input sequence. Input: GDCDAREEKQRELARKGSLKNGSM [FAM219A]
Completion: 5.35

====

- protocol.details: protein stability index of a GFP-peptide fusion (GPS, HEK-293T) (PSI 1-6); higher = more stable
- condition.label: treatment: DMSO; c terminus: a fixed tail appended
Reported protein stability index is given for each of the following sequences.
Response field accepts a number only; no unit should be typed.

# example entries with known answers
seq	observed
SIVAVGFHIFRTLEVNRLMGKLLQ [PKD2L1]	3.03
VLLEEPLPLETARESPSFKLEPME [ZNF263]	4.02

Now look at this entry.
Prompt: Returns the measured protein stability index for the input sequence. Input: NLYVFGGYNPDYDESGGPDNEDYP [KLHDC10]
Completion: 3.9
